All values here come from ChEMBL document CHEMBL1201862.

System: MDA-MB-435
Experiment: NCI tumour cell line growth inhibition, 48 h
Activity calls are given as the source filed them. No stated cut-off is given here; in the data, active = GI50 up to about 1.1 µM and inactive = higher. Residues, ends and D or L forms follow the SMILES beside them. *: point of attachment. Boc = CC(C)(C)OC(=O)*
Possible outcomes: y for active, n for inactive

N/C(=N/c1ccc(O)cc1)S(=O)(=O)O :: n
COc1ccc2c(c1)C1Oc3ccccc3CC1CO2 (stereo not drawn) :: n
Cn1c(=N)n[n+]([O-])c2ccccc21 :: y
O=C1c2ccccc2C(=O)c2c(Nc3ccc4c5c(cccc35)C(=O)c3ccccc3-4)cccc21 :: n
OB(O)c1ccccc1C#Cc1ccccc1B(O)O :: n
O=C(Cn1c2ccc(Br)cc2c2nc3ccccc3nc21)N1CCOCC1 :: n
N#Cc1sc2c(c1OC(=O)c1ccc(C(F)(F)F)cc1)c(=O)n(-c1ccccc1)c(=S)n2-c1ccccc1 :: n
COC(=O)C(Cc1c[nH]c2ccccc12)NC(=O)C(Cc1c[nH]c2ccccc12)NC(=O)C(Cc1c[nH]c2ccccc12)NC(=O)C(Cc1c[nH]c2ccccc12)NC(=O)C(Cc1c[nH]c2ccccc12)NC(=O)C(Cc1c[nH]c2ccccc12)NC(=O)OC(C)(C)C (stereo not drawn) (Boc-WWWWWW-OMe; configuration not given here) :: n
O=S(=O)(O)c1cc(/N=N/c2cccc3ccccc23)c(O)c2ncccc12 :: n
Nc1ccc(C(=O)N/C(=C\c2cccc([N+](=O)[O-])c2)c2nc3c(O)nc(S)nc3[nH]2)cc1 :: n
CN(C)c1ccc(C=C2N=C(c3ccccc3)N(c3cc(C(=O)c4ccccc4)ccc3N3C(=O)/C(=C/c4ccc(N(C)C)cc4)N=C3c3ccccc3)C2=O)cc1 :: n
CSc1nc(=O)c(C#N)c(-c2ccccc2)n1C1OC(COC(C)=O)C(OC(C)=O)C(OC(C)=O)C1OC(C)=O (stereo not drawn) :: n
Cc1nn(CN2CCN(C)CC2)c(=S)n1/N=C/c1ccc(-c2ccc(Cl)cc2Cl)o1 :: n
CCO[C@@]12CCC3CC4CC[C@@](OCC)(O1)C4C32 (stereo partly drawn) :: n
CC(=O)Nc1ccc(N2C(=O)/C(=C\c3cccc(Oc4ccccc4)c3)S(=O)(=O)C2c2ccccc2)cc1 (stereo not drawn) :: n
O=C(CSc1nc2ccc(I)cc2c(=O)n1Cc1ccccc1)NNC(=O)c1ccccc1 :: n
N#Cc1nc(Cc2cccs2)oc1N :: n
COC(=O)C1=C(C(=O)OC)SC(=C2c3ccsc3-c3sccc32)S1 :: n

* * *

Test system: M19-MEL
Assay: NCI tumour cell line growth inhibition, 48 h
The source made the active and inactive calls. No stated cut-off is given here; in the data, active = GI50 up to about 1.1 µM and inactive = higher.
quantity-kind: GI50

CNC(=O)NC(CCCCNC(=O)OCc1ccccc1)C(=O)OCc1ccccc1 (stereo not given) :: 17 µM (inactive)
CCCC(=O)c1c(NOC2OC(COC(C)=O)C(OC(C)=O)C(OC(C)=O)C2OC(C)=O)nc(OC)n(C)c1=O (stereo not given) :: > 100 µM (inactive)
COc1ccc(/C(Cl)=C(/c2ccc(O)cc2)c2ccc(OCCN(C)C)cc2)cc1 :: 3.72 µM (inactive)
CCN1C(=O)/C(=C\c2coc3ccccc3c2=O)SC1=S :: > 100 µM (inactive)
O=c1/c(=C/c2c(O)ccc3ccccc23)sc2nc3ccccc3n12 :: > 100 µM (inactive)
Cc1ccc2ccc(-c3ccccc3)c3c2c1C(=O)c1ccccc1C3=O :: 76.2 µM (inactive)
O=C(CN(c1ccccc1)c1ccccc1)n1nnc2ccccc21 :: 20.6 µM (inactive)
CCN(CC)CC(C)(C)C(=O)/C=C/c1cccc(/C=C/C(=O)C(C)(C)CN(CC)CC)c1 :: 0.959 µM (active)
N=C(N)NS(=O)(=O)c1ccc(Nc2c3ccccc3nc3c(C(=O)N4CCN(CCO)CC4)ccc(Cl)c23)cc1 :: > 100 µM (inactive)
Cc1c2ncccc2c(C)c2c1[nH]c1ccccc12 :: 13.4 µM (inactive)
